Origin of measurements: patent US20210171613A1

target: T1, Clostridium difficile toxin A (TcdA) (Clostridium difficile, UniProt P16154 1-2710); assay: SPR (Biacore 3000), VHH over immobilized TcdA; binding free energy difference relative to parent VHH
T1 construct: mature; also called full-length TcdA
T1 sequence (P16154 whole entry): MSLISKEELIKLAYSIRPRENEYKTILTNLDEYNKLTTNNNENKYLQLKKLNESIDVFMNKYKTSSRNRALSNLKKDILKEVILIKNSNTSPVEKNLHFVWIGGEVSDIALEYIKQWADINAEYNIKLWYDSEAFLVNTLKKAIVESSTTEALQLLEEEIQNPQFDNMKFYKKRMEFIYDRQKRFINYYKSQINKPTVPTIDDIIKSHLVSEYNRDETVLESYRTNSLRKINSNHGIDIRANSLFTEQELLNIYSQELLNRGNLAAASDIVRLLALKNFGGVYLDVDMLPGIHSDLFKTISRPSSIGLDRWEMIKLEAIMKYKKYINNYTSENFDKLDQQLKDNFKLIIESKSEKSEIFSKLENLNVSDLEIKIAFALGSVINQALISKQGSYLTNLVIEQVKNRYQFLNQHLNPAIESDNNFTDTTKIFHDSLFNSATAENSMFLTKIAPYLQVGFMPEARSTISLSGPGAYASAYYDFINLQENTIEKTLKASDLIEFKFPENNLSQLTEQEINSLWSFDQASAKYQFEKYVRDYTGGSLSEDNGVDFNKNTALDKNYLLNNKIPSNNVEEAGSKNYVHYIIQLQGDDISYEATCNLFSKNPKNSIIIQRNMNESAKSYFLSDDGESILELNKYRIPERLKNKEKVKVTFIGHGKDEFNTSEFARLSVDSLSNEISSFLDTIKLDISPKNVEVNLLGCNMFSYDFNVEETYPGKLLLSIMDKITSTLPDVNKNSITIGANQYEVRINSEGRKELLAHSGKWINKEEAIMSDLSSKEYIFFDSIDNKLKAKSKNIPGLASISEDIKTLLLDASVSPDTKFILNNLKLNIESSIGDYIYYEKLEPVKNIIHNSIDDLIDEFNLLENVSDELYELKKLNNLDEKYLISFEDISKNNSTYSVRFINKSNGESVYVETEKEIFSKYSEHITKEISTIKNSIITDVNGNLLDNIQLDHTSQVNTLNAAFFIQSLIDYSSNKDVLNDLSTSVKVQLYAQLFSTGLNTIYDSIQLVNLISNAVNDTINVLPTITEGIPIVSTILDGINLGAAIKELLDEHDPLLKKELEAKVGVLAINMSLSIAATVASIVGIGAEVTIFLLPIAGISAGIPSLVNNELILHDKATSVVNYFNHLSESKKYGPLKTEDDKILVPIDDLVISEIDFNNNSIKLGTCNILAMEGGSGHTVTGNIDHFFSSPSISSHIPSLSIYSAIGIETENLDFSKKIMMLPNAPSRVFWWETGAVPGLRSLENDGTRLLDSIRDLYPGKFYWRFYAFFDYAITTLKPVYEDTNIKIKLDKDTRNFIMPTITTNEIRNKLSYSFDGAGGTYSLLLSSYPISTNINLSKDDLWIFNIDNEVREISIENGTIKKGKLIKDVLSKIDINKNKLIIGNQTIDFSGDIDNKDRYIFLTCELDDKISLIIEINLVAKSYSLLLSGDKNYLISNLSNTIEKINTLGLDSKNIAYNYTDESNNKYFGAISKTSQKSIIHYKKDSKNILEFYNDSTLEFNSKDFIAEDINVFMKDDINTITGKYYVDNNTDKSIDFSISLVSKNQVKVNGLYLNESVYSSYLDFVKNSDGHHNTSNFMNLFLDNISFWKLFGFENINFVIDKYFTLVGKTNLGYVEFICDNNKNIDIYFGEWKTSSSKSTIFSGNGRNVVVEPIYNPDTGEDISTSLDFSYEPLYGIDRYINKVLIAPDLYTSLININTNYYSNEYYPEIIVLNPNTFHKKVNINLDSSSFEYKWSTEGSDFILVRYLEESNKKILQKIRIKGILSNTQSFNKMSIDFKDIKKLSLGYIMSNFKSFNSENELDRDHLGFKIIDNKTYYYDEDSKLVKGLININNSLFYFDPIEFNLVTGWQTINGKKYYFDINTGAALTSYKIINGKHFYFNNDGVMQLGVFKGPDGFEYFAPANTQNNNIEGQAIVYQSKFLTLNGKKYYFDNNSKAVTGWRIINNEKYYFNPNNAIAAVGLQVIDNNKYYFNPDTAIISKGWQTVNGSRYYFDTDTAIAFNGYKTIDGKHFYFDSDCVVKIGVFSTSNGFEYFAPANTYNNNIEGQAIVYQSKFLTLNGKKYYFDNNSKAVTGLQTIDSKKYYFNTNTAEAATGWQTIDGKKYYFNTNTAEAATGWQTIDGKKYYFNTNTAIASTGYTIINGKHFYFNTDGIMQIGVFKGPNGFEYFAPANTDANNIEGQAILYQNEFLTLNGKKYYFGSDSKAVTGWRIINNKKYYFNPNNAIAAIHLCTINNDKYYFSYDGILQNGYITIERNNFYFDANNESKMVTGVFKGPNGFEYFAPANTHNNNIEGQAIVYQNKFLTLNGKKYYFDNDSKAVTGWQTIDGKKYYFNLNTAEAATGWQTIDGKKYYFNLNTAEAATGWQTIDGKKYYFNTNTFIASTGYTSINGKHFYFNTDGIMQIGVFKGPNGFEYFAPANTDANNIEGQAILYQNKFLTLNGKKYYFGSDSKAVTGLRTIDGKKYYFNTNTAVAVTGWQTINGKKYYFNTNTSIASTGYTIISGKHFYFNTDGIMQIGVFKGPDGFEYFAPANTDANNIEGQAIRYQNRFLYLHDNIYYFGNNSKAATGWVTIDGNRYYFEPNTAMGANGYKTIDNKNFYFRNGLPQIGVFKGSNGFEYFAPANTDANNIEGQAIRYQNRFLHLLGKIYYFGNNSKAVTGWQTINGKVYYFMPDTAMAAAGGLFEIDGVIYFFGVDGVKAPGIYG
Property Measured: ΔΔG

Solved entries (count: 3):
Binder	Observed Result
A26.8 VHH mutant D107N (VHH, not shown: small tags and cut ends) VHH: QVKLEESGGGLVQAGGSLRLSCAASERTFSRYPVAWFRQAPGAEREFVAVISSTGTSTYYADSVKGRFTISRDNAKVTVYLQMNNLKREDTAVYFCAVNSQRTRLQNPNEYDYWGQGTQVTVSS	0.08 kcal/mol
A26.8 VHH mutant D107Y (VHH, not shown: small tags and cut ends) VHH: QVKLEESGGGLVQAGGSLRLSCAASERTFSRYPVAWFRQAPGAEREFVAVISSTGTSTYYADSVKGRFTISRDNAKVTVYLQMNNLKREDTAVYFCAVNSQRTRLQYPNEYDYWGQGTQVTVSS	0.5 kcal/mol
A26.8-T103K (VHH, not shown: small tags and cut ends) VHH: QVKLEESGGGLVQAGGSLRLSCAASERTFSRYPVAWFRQAPGAEREFVAVISSTGTSTYYADSVKGRFTISRDNAKVTVYLQMNNLKREDTAVYFCAVNSQRKRLQDPNEYDYWGQGTQVTVSS	-0.48 kcal/mol

Attention now turns to another entry.
For A26.8-T54R (VHH, not shown: small tags and cut ends) VHH: QVKLEESGGGLVQAGGSLRLSCAASERTFSRYPVAWFRQAPGAEREFVAVISSRGTSTYYADSVKGRFTISRDNAKVTVYLQMNNLKREDTAVYFCAVNSQRTRLQDPNEYDYWGQGTQVTVSS , write its ΔΔG.
-0.2 kcal/mol
